Test system: K4 kissing-loop RNA reporter;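 further: bound reporter read as fluorescence of individual clusters on recovered sequencing chips by microscopy, with normalized cluster intensities fitted with a binding model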
Experiment: apparent KD of K4 kissing-loop reporter; higher = weaker reporter binding
Conditions: Eterna round: R107; input ligand: none
Please use YES whenever apparent KD of K4 kissing-loop reporter is not below 200 nM, and NO whenever it is.

-- ask In plain terms: is recorded apparent KD of K4 kissing-loop reporter at least 200 nM for UCGAGUUGACGAAAAGUCAACUCGUGAGAUACCAGUGACGAAAGUCACCCUUGGCAGCUCACUGCCAGUGAUGUUGGUAUAUAGA [#05 K4 Theophylline A Same State] ?
-- reply NO

-- ask Similarly, UGGGUGUAGUGAUGUUAUAUAGAGAGUGAUACCAGCUUAGAGAGAAGCCCUUGGCAGCAUAGAAGAGUAUCAUUGGAGGAGGAGG [ExTheophyl.Ay] ?
-- reply YES

-- ask Similarly, UCCUGCUGUCAGCCACGAAAGUGGAUUGAUACCAGAGUCGAAAGACUCCCUUGGCAGCGAGUGAUGUUCGCAGCAGGUAAAUAAA [MatMod 3 - Jieux - Exclusion - Theophylline A] ?
-- reply YES

-- ask Similarly, UGAUACCAGACGGCCGCCACUCCUGCAGUCAAAGACUGCAAAGGAAUAUUCGUCCAGUGAUGUUGGAGGACCGGGUCUGGUAUCU [TrypBX 11 #SwitchBubble #Palindromic #StaticStem] ?
-- reply YES
